# System: C. elegans
# experiment-description: C. elegans growth and proliferation
# Assay type: in vivo
# experimental-context: 250 μM; Table 8
measurement-label: Effective inhibitor of C. elegans growth at 250 μM

1) CS(=O)(=O)NC(=O)CC1Sc2nnc(Cc3ccc(Br)cc3)n2N=C1c1ccc(Cl)cc1 (stereo not shown) [Compound 12] :: No
2) O=C(CC1Sc2nnc(Cc3ccc(Br)cc3)n2N=C1c1ccc(Cl)cc1)NS(=O)(=O)c1ccccc1 (stereo not shown) [Compound 13] :: Yes
3) COC(=O)CC1Sc2nnc(Cc3ccc(Br)cc3)n2N=C1c1ccc(Cl)cc1 (stereo not shown) [Compound 14] :: No
4) O=C(O)CC1Sc2nnc(Cc3ccc(Br)cc3)n2N=C1c1ccc(Cl)cc1 (stereo not shown) [Compound 11] :: No
